assay: binders of probe aHhip on microarray, primary screen, stem cell growth factor project, biochemical, small-molecule microarray, fluorescence 635/667 (AID 1087); conditions: higher = more signal;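 also: score merges spot fluorescence at 667nm with spot signal to noise ratio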
Reported composite z-score values are given for each entry in this list.

[
  {
    "Compound": "CC(C)C[C@@H]1NC(=O)[C@@H]2C[C@H](C(=O)NCCCC[N+](C)(C)C)[C@H](c3cccc(OCCO)c3)N2C1=O",
    "composite z-score": 0.595
  },
  {
    "Compound": "Cc1ccccc1C(O)C1C=CC2C(=O)N(Cc3ccccc3)C(=O)C2N1n1cnnc1 (centres undefined)",
    "composite z-score": 0.0053
  },
  {
    "Compound": "COc1cc(C(O)C2C=CC3C(=O)NC(=O)C3N2Nc2ccc(Cl)cc2Cl)cc(OC)c1OC (centres undefined)",
    "composite z-score": 0.203
  },
  {
    "Compound": "COCCCNC(=O)[C@@H]1c2ccccc2C(=O)N(Cc2cc(F)cc(C(F)(F)F)c2)[C@H]1c1ccc(CO)cc1",
    "composite z-score": -0.134
  }
]

---

The following molecules are listed with their measured z-score values.
target: NADPH oxidase 5 (Homo sapiens) (UniProt Q96PH1); test: compounds shifting NOX5 Amplex Red fluorescence – cell-based, HEK293-NOX5, NOX inhibitor project, primary screen (AID 1161); details: HEK293-NOX5, ionomycin, 45 min, higher = more signal
Sequence (Q96PH1 whole entry, looked up): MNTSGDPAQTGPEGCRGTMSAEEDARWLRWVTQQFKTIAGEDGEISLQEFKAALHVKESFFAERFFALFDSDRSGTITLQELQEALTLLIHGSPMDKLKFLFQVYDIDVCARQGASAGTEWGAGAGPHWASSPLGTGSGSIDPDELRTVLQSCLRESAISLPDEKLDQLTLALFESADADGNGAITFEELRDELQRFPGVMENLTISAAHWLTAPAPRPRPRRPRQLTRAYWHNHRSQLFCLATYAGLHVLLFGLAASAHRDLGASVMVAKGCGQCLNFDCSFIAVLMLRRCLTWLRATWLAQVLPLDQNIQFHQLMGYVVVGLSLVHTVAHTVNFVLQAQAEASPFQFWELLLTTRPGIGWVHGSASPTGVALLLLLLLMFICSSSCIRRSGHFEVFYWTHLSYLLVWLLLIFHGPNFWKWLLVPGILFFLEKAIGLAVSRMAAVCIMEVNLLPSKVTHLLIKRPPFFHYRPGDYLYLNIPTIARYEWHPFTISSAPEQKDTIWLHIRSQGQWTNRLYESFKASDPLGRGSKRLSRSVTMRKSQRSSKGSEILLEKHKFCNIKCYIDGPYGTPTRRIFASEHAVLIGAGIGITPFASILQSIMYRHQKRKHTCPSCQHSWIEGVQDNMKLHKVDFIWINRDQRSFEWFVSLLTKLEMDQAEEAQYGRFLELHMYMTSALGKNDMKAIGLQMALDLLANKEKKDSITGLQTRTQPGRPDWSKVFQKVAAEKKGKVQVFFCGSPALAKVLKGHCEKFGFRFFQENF
Reported Metric: z-score

[
  {
    "Chemical Structure": "CC(=O)NCCCC[C@@H]1NC(=O)[C@@H]2C[C@H](C(=O)NCCCC[N+](C)(C)C)[C@H](c3cccc(OCCO)c3)N2C1=O",
    "Assayed Target": "NADPH oxidase 5 (Homo sapiens) (UniProt Q96PH1)",
    "Val": 1.29
  },
  {
    "Chemical Structure": "[N-]=[N+]=Nc1ccccc1C[C@]1(C(=O)NCCN2CCOCC2)N=C(c2ccc(OCCCO)cc2)O[C@H]1c1ccccc1N=[N+]=[N-]",
    "Assayed Target": "NADPH oxidase 5 (Homo sapiens) (UniProt Q96PH1)",
    "Val": -1.15
  },
  {
    "Chemical Structure": "C=CC[C@]1(C(=O)N2CCOCC2)N=C(c2ccc(OCCCO)cc2)O[C@H]1c1ccccc1CN=[N+]=[N-]",
    "Assayed Target": "NADPH oxidase 5 (Homo sapiens) (UniProt Q96PH1)",
    "Val": -1.32
  },
  {
    "Chemical Structure": "COC(=O)[C@@]1(Cc2ccc(F)cc2)[C@H]2c3cc(C(=O)N4CCCC4)n(Cc4ccccc4)c3C[C@H]2CN1C(=O)c1ccccc1",
    "Assayed Target": "NADPH oxidase 5 (Homo sapiens) (UniProt Q96PH1)",
    "Val": -1.48
  },
  {
    "Chemical Structure": "CC1=C2[C@@H](CCc3ccccc3)OB(O)C[C@@H]2[C@@H]2C(=O)C=CC(=O)[C@@H]2C1",
    "Assayed Target": "NADPH oxidase 5 (Homo sapiens) (UniProt Q96PH1)",
    "Val": -3.15
  },
  {
    "Chemical Structure": "CCOC(=O)C[C@H]1[C@H](OC(=O)c2cc3ccccc3oc2=O)[C@@H](NC(=O)c2ccc3ccccc3n2)c2cc(OCCCO)ccc2N1C(=O)c1ccc2ccccc2n1",
    "Assayed Target": "NADPH oxidase 5 (Homo sapiens) (UniProt Q96PH1)",
    "Val": 2.28
  },
  {
    "Chemical Structure": "COc1ccc(C#Cc2ccc3c(c2)[C@]2(C(=O)N3)[C@H](c3ccc(OCCO)cc3)N3[C@H](c4ccccc4)[C@H](c4ccccc4)OC(=O)[C@H]3[C@@H]2C(=O)N2CCN(c3ncccn3)CC2)cc1",
    "Assayed Target": "NADPH oxidase 5 (Homo sapiens) (UniProt Q96PH1)",
    "Val": 1.34
  }
]
